The measured values listed here are drawn from patent US8236843B2.

- testSummary: Acute oral toxicity studies (OECD AOT No. 425)
- setupConditions: both sexes, mouse, in vivo, albino mice, observed 48 hrs
For each of the compounds below, state its LD50 at 48 h.

* Cc1ccc(-c2cc(C(F)(F)F)nn2-c2ccc(S(N)(=O)=O)cc2)cc1 [Celecoxib, reference compound] | < 2000 mg/kg

Switching to the query record.
Q: Supply recorded LD50 at 48 h for `Cc1c(Cl)cccc1Nc1ccccc1C(=O)O` here.
Ans: < 550 mg/kg

---

Task for the reader: assign each of the following compounds its reported melting point.

Worked cases, answers included:
• Cc1nc([N+](=O)[O-])c(Br)n1Cc1ccc(-c2ccccc2C(=O)O)cc1 = 222 to 225 °C
• Cc1nc([N+](=O)[O-])c(Br)n1Cc1ccc(-c2ccccc2C#N)cc1 = 158 to 162 °C
• NS(=O)(=O)c1ccc(Nc2ccccc2-c2ccc(Cn3cc([N+](=O)[O-])nc3CO)cc2)cc1 [Formula (I) Sr. No. 7] = 154 to 155 °C

Q: Identify the reported melting point for the following entry. `O=[N+]([O-])c1cn(Cc2ccc(-c3ccccc3-c3nnn[nH]3)cc2)cn1`
Ans: 202 to 204 °C
